- assayed-target: T1, human GPC3-his tag protein (human, UniProt P51654 25-559, limits assumed)
- T1 construct: recombinant soluble antigen used as analyte in all Biacore runs; also called recombinant GPC3 protein; rhGPC3-His; not shown: His tag
- assay-notes: SPR Biacore 8K, mAb captured, one or two doses GPC3-his
Assign pKd to each entry below.
Answers are plain numbers, as −log10 of the molar value.

# count of solved cases: 2
>  <binder>
52H5D3B8-15# chimeric mAb (antibody, V domains shown, CDR3 mutant of the 52H5D3B8 chimeric mAb (human IgG1)) VH: QVQLQQSGAELVRPGASVKLSCKALGYTFTDYEMHWVKQTPVHGLEWIGAIHPGSGGTAYNQKFKGKATLTADKFSSTGYMELSSLTSEDSAVYYCTRYYSFAYWGQGTLVTVSA VL: DVVMTQTPLSLPVSLGDQASISCRSSQSLVHSNGNTYLQWYLQKPGQSPKLLIYKVSNRFSGVPDRFSGSGSGTDFILKISRVEAEDLGVYFCFQSTHVPYTFGGGTKLEIK

>  <pKd>
7.55

$$$$
>  <binder>
52H5D3B8-9# chimeric mAb (antibody, V domains shown, CDR3 mutant of the 52H5D3B8 chimeric mAb (human IgG1)) VH: QVQLQQSGAELVRPGASVKLSCKALGYTFTDYEMHWVKQTPVHGLEWIGAIHPGSGGTAYNQKFKGKATLTADKFSSTGYMELSSLTSEDSAVYYCTRFYSFAYWGQGTLVTVSA VL: DVVMTQTPLSLPVSLGDQASISCRSSQSLVHSNGNTYLQWYLQKPGQSPKLLIYKVSNRFSGVPDRFSGSGSGTDFILKISRVEAEDLGVYFCSQSTHVPYTFGGGTKLEIK

>  <pKd>
7.89

$$$$

Entry 52H5D3B8-5# chimeric mAb (antibody, V domains shown, CDR3 mutant of the 52H5D3B8 chimeric mAb (human IgG1)) VH: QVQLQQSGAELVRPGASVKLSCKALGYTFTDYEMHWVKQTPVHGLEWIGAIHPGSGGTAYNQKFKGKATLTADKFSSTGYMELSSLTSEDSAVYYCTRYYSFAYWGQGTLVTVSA VL: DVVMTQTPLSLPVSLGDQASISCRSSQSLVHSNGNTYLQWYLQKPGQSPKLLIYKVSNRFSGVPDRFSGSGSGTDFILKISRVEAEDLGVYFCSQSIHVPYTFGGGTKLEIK ; pKd = 8.39
